Biological target: pooled human IgG (human IgG1, 2, 3 and 4) (human); further: test concentration or dose not given here
Assay: cell-based or functional assay
Property: Enzyme Activity Endpoint Assay: Fc (ng/µL)
Give bare numbers, in ng/µL.

Problem: Need Enzyme Activity Endpoint Assay: Fc, item PRT-395 (enzyme) MVTSVWTKGVTPPADFTQGEDVFHAPYVANQGWYDITKTFNGKDDLLCGAATAGNMLHWWFDQNKEYIEAYLKKHPEKQKIMFGDQELLDVRKAINTKGSQKNSELFNYFRDKAFPTLSARRLGVMPDLVLDMFINGYYLNVTKTQTTDVNRTYQEKDKRGGIFDAVFTRGDQSKLLTSRHDFKEKGLKEISDLIKQELTEGKALGLSHTYANVRINHVINLWGADFDSDGNLKAIYVTDSDSNASIGMKKYFVGVNSAGKVAISAKEIKEDNIGAQVLGLFTLSTGQDIWNQTN
Result: 358
